- tested-on: Neuropilin-1 (Homo sapiens) (UniProt O14786)
- Sequence (O14786 whole entry, looked up): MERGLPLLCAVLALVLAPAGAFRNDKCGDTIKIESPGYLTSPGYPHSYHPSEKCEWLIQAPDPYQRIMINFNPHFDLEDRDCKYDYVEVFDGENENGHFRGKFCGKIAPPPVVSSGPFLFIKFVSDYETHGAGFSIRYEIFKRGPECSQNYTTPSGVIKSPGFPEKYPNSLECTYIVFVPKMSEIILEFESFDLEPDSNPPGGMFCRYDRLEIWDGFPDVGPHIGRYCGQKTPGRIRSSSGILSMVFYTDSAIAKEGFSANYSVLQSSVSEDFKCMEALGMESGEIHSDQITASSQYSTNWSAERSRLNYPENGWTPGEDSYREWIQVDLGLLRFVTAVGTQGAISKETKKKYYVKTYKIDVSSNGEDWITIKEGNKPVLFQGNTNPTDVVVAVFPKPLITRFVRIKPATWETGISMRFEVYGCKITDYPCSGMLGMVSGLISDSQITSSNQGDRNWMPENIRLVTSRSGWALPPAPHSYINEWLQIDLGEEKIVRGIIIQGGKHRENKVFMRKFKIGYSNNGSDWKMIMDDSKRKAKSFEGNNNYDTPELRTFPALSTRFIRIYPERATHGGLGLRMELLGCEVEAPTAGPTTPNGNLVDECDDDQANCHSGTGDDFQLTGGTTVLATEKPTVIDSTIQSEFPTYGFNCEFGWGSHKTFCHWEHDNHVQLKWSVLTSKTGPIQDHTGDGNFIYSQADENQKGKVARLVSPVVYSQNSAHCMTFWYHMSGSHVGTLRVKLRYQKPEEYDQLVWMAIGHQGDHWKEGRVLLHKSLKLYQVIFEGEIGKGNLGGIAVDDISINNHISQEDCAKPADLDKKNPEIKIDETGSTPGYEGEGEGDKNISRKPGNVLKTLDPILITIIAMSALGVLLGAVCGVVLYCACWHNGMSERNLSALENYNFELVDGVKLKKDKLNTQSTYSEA
- assay-details: blockers of CendR peptide binding to NRP-1 – biochemical, FP and AlphaScreen panel, dose response (AID 651650)
- settings: NRP-1 b1b2 / RPARPAR peptide binding, FP or AlphaScreen; run 1, at 100 µM (top of the series)
Just so you know, the groups by inhibition go like this: lowest = under 30%, middle = from 30% up to 40%, highest = 40% and over

molecule	category-label
CSc1cccc(CN2CCN(Cc3ccccc3)C(CCO)C2)c1 (stereo unspecified)	highest
CC1(c2ccccc2)CC(C)(C)n2c(O)c(C3=NC(=S)NC3=O)c3cccc1c32 (stereo unspecified)	lowest
NC(=O)C1CCCN(C(=O)c2ccc3nc(Cc4cccc(Cl)c4)oc3c2)C1 (stereo unspecified)	highest
O=C(O)C1CCN(C(=O)c2ccc(Cl)cc2)CC1	middle
Cc1ccc(C(=O)N2CCN(C34CC5CC(CC(C5)C3)C4)CC2)o1	highest
O=C(CCC(=O)Nc1ccccc1Cl)NN=C1CCCC1	highest
O=[N+]([O-])c1cc(-c2csc(NCCc3nc4cc(C(F)(F)F)ccc4n3CCCO)n2)ccc1Cl	middle
O=c1ccsn1Cc1ccccc1	lowest
CCn1c(SCC(=O)c2ccccc2)nnc1-c1cccs1	highest
CN(C(=O)COC(=O)c1nc(-c2ccccc2)n(-c2ccccc2)n1)C1CCS(=O)(=O)C1 (stereo unspecified)	lowest
Cc1ccc(C(=O)Nc2nnc([C@H]3C[C@H](O)[C@@H](CO)O3)s2)cc1	lowest
COc1ccc(/C=N/NC(=O)c2cc(C(C)(C)C)[nH]n2)cc1COc1ccc(F)cc1F	lowest
CCn1c(=O)c(C(=O)NCCNCCO)c(O)c2ccccc21	lowest
Fc1cc(Cl)ccc1Nc1nc(NCc2ccccc2)nc2ccsc12	lowest
C=C(C)C1CC=C(C)/C(=N\NC(=O)CNc2ccccc2OC)C1 (stereo unspecified)	lowest
Cc1onc(-c2ccccc2)c1C(=O)Nc1c(C)n(C)n(-c2ccccc2)c1=O	lowest
Cc1ccc(C(=O)Nc2ccccc2-c2ccccc2)cc1S(=O)(=O)Nc1ccccc1	middle
COc1ccccc1N1CCN(C(=O)C2c3ccccc3Oc3ccccc32)CC1	middle
COc1ccc(N(CC(=O)NCc2ccco2)C(=O)CCC(=O)Nc2ccccn2)cc1	lowest
COc1cc(CN2C[C@@H](CO)O[C@@H](n3cnc4c(N5CCN(c6ccccc6)CC5)ncnc43)C2)cc(OC)c1OC	highest
COC(=O)[C@@]1(Cc2ccc(OC)cc2)[C@H]2c3cc(C(=O)N4CCCC4)n(CCN4CCOCC4)c3C[C@H]2CN1C(=O)c1ccccc1	middle

Every entry's value here was drawn from PubChem BioAssay AID651650.
